- tested_target: Ephrin type-A receptor 2 (Homo sapiens) (UniProt P29317);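 also: value is the mean inhibition of EPHA2, measured in the GSK PKIS screen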
- Sequence (P29317 whole entry): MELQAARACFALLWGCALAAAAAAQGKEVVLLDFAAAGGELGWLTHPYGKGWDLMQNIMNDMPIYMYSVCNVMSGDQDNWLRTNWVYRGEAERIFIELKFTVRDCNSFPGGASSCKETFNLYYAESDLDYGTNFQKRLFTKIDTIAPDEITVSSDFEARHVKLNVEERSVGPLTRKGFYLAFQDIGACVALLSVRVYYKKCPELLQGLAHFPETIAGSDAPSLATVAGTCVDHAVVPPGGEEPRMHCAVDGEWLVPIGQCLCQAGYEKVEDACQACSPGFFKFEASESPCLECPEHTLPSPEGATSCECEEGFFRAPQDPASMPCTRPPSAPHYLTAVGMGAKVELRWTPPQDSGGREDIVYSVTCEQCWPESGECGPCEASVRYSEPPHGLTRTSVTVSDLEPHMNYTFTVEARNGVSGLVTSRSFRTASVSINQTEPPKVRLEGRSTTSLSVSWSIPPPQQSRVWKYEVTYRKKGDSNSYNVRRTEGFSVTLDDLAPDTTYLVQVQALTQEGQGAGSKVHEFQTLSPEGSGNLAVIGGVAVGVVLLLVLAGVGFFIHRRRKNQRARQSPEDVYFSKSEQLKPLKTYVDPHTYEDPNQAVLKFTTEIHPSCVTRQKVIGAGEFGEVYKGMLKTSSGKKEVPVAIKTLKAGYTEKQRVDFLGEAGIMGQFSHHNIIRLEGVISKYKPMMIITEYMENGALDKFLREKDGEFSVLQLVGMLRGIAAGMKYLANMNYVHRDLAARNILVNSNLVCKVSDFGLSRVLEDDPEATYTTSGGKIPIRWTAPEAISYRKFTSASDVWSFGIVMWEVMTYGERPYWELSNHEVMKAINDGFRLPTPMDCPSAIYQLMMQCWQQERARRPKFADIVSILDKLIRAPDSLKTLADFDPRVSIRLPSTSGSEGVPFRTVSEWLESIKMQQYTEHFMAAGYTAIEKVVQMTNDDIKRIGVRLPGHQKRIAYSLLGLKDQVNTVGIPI
- condition_set: at 1 µM
property_measured: inhibition

> print(dat)
                                chem.smiles  result
1  COc1cccc(-n2ncc3c(N/N=C/c4cccc(F)c4)ncnc32)c1  -5.64%
2  CCN1CCC(CC(=O)Nc2n[nH]c3nc(-c4cccs4)c(Br)cc23)CC1  -1.54%
3  CS(=O)(=O)CCNCc1ccc(-c2ccc3ncnc(Nc4ccc(OCc5cccc(F)c5)c(C(F)(F)F)c4)c3c2)o1   1.21%
4  CCc1cccc(NC(=O)Nc2ccc(Oc3ccc4nc(NC(=O)OC)[nH]c4c3)cc2)c1   65.7%

---

- System: Platelet-derived growth factor receptor alpha (Homo sapiens), P16234 [T674I]
- Sequence (P16234 whole entry T674I): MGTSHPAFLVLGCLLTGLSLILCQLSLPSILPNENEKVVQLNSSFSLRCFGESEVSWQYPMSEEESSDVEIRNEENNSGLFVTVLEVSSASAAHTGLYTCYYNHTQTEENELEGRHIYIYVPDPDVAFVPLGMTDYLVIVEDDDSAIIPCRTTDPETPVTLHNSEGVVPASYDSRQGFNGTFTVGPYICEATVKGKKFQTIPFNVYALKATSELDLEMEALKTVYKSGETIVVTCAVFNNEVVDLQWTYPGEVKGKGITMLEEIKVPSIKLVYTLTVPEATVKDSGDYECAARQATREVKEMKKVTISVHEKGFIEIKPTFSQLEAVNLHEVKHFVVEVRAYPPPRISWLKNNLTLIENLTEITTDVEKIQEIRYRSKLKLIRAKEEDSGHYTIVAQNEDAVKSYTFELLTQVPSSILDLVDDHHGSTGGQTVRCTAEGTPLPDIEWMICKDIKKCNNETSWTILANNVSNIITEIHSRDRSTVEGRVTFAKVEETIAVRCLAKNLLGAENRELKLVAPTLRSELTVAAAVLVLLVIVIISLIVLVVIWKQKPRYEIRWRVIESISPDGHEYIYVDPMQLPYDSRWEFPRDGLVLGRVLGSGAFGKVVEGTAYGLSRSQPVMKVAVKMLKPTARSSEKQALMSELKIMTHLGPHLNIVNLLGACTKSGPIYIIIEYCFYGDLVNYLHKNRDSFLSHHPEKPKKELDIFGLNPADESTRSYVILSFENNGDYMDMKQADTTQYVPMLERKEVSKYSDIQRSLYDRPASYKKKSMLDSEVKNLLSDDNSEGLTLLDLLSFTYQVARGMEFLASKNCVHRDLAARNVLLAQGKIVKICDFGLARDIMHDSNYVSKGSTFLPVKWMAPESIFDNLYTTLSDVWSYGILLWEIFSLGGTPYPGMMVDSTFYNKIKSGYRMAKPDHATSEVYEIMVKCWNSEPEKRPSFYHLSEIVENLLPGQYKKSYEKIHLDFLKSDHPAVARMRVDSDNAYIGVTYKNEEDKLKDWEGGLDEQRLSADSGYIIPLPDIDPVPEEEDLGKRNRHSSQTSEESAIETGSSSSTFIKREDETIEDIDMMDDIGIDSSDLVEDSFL
- condition_set: at 1 µM
Category | rule: reported inhibition within range, see group A = under 6%, group B = from 6% up to 10%, group C = 10% and over

> print(dat)
                                chem.smiles                             tested.target  qualitative.label
1  COc1cc(C)c(NC(=O)CN(C)C)cc1Nc1nc(Nc2cccc(F)c2C(N)=O)c2cc[nH]c2n1  Platelet-derived growth factor receptor alpha (Homo sapiens), P16234 [T674I]            group A
2  O=C1Nc2ccc(C(=O)c3ccco3)cc2C1=Cc1cc(Cl)c(O)c(Cl)c1  Platelet-derived growth factor receptor alpha (Homo sapiens), P16234 [T674I]            group C
3               COc1ccc(-c2ccncc2)cc1C(N)=O  Platelet-derived growth factor receptor alpha (Homo sapiens), P16234 [T674I]            group B
4  Fc1cccc(COc2ccc(Nc3ncnc4cc(-c5ccc[nH]5)sc34)cc2Cl)c1  Platelet-derived growth factor receptor alpha (Homo sapiens), P16234 [T674I]            group A
5     Cc1cccc(-c2n[nH]cc2-c2ccc3ncccc3n2)n1  Platelet-derived growth factor receptor alpha (Homo sapiens), P16234 [T674I]            group A
6  Nc1ncnc2occ(-c3ccc(NC(=O)Nc4cc(C(F)(F)F)cc(C(F)(F)F)c4)cc3)c12  Platelet-derived growth factor receptor alpha (Homo sapiens), P16234 [T674I]            group C
7    N#Cc1c(NC(=O)c2cccc3ccccc23)sc2c1CCCC2  Platelet-derived growth factor receptor alpha (Homo sapiens), P16234 [T674I]            group B
8  O=C1NC(=O)C(N2CCc3ccccc32)=C1c1ccc(Cl)cc1  Platelet-derived growth factor receptor alpha (Homo sapiens), P16234 [T674I]            group B
9             COc1ccccc1Nc1ncc(-c2ccccc2)o1  Platelet-derived growth factor receptor alpha (Homo sapiens), P16234 [T674I]            group C

---

- tested_target: Receptor tyrosine-protein kinase erbB-4 (Homo sapiens) (UniProt Q15303);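 also: values are averaged percent inhibition of ERBB4 kinase activity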
- Sequence (Q15303 whole entry): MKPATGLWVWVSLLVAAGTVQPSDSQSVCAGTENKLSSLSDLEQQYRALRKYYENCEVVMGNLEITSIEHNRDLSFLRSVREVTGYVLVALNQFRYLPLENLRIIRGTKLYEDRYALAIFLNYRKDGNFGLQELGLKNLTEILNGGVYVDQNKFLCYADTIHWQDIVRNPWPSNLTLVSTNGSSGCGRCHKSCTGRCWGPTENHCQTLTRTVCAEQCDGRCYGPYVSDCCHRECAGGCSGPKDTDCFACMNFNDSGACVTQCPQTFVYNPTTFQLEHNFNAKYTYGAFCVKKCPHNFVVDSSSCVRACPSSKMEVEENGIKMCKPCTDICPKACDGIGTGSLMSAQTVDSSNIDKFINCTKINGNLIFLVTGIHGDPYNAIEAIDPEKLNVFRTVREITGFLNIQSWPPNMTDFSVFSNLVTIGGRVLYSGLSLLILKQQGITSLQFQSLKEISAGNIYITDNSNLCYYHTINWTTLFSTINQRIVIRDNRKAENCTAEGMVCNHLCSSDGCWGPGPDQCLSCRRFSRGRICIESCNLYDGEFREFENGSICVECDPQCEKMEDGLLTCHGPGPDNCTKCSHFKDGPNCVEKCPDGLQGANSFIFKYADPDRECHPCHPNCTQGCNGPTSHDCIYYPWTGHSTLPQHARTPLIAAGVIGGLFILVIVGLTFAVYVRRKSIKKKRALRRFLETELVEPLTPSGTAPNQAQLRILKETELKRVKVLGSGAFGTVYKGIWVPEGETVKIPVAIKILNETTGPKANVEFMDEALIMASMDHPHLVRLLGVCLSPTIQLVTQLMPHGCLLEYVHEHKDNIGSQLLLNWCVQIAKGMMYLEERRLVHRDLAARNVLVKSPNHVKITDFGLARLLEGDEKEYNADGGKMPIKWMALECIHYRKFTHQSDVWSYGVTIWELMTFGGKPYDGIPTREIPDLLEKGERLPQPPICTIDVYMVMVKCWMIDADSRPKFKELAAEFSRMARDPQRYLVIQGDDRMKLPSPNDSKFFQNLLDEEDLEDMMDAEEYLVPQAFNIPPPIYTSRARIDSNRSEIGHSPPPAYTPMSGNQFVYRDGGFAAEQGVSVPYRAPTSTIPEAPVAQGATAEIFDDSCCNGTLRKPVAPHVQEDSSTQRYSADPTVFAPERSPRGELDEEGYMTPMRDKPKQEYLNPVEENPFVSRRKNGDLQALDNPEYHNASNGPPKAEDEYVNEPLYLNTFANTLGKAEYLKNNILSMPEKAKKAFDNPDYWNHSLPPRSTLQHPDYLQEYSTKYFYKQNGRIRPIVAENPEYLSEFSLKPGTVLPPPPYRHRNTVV
- condition_set: at 0.1 µM
property_measured: inhibition (%)

> print(dat)
                                chem.smiles  numeric.readout
1  COC(=O)Nc1nc2cc(Oc3cccc(NC(=O)Nc4cc(C(F)(F)F)ccc4F)c3)ccc2[nH]1             3.99
2  Nc1ncnc2occ(-c3ccc(NC(=O)Nc4cc(C(F)(F)F)cc(C(F)(F)F)c4)cc3)c12             9.75
3       CCn1c(-c2nonc2N)nc2c(N3CCCC3)nccc21            -3.28

---

- tested_target: Tyrosine-protein kinase ABL1 (Homo sapiens)
- condition_set: at 0.1 µM
- Description: GSK_PKIS: ABL1 mean inhibition at 0.1 uM [Nanosyn]
property_measured: inhibition (%)

> print(dat)
                                chem.smiles  property.measured  numeric.readout
1  COc1cc2ncn(-c3cc(OCc4ccccc4Cl)c(C(N)=O)s3)c2cc1OC         inhibition             3.59
2  Cc1nnc(-c2ccc(C)c(-c3ccc(C(=O)Nc4cccc(C#N)c4)cc3)c2)o1         inhibition             3.64
3  c1cnn2ncc(-c3ccnc(Nc4ccc5c(c4)OCCO5)n3)c2c1         inhibition             7.67

---

Entries annotated with measured inhibition
- tested_target: SRSF protein kinase 1 (Homo sapiens);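 also: values are mean percent inhibition of SRPK1 kinase, measured in the GSK PKIS screening panel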
- condition_set: at 0.1 µM
property_measured: inhibition (%)

> print(dat)
                                    compound  unit.label  numeric.readout
 1  NS(=O)(=O)c1ccc(N/N=C2\C(=O)Nc3ccc(C(=O)NCCc4c[nH]cn4)cc32)cc1           %            -1.35
 2  Cc1cc(O)cc(C)c1/C=C/c1cncc(-c2nn[nH]n2)c1           %            -1.87
 3  CC1=C(C(=O)Nc2ccc3[nH]ncc3c2)C(c2ccc3ccccc3c2)CC(=O)N1 (stereo unspecified)           %            -1.36
 4  COc1cc2ncn(-c3cc(O[C@@H](C)c4ccccc4Cl)c(C(N)=O)s3)c2cc1OC           %            -2.61
 5  COc1cc2c(cc1Nc1nc(N3CCc4ccccc43)c3cc[nH]c3n1)N(C(=O)CN(C)C)CC2           %            -1.43
 6  O=C(Nc1n[nH]c2nc(-c3ccco3)c(Br)cc12)C1CC1           %            -4.07
 7  COC(=O)Nc1nc2cc(Oc3cccc(NC(=O)Nc4cc(C(F)(F)F)ccc4F)c3)ccc2[nH]1           %            -0.98
 8  [O-][S+]1CCN(Cc2ccc(-c3ccc4ncnc(Nc5ccc(OCc6ccccc6)c(F)c5)c4c3)o2)CC1           %            -2.36
 9  Cc1ccc(NC(=O)c2ccnc(N3CCCC3)c2)cc1-c1ccc(C(=O)NCC2CC2)cc1           %            -2.03
10             COc1ccccc1Nc1ncc(-c2ccccc2)o1           %            -4.21
11  NC(=O)c1cccc(Nc2nccc(Nc3cccc4[nH]ncc34)n2)c1           %             1.99
12   COc1ccc(COc2ccc(Cc3cnc(N)nc3N)cc2OC)cc1           %            -0.52
13  CN1CCC(C(=O)Nc2n[nH]c3nnc(-c4ccccc4)cc23)CC1           %            -2.38
14  CCCN1CCC(Oc2cc(Nc3nc(Nc4cccc(F)c4C(N)=O)c4cc[nH]c4n3)c(OC)cc2Cl)CC1           %             -0.3
15    N#Cc1c(NC(=O)c2cccc3ccccc23)sc2c1CCCC2           %            -2.33
16  O=C1Nc2ccc(C(=O)c3ccco3)cc2C1=Cc1cc(Cl)c(O)c(Cl)c1           %            -1.28
17  CC(=O)Nc1cccc(C#Cc2cncnc2Nc2ccc(OCc3cccc(F)c3)c(Cl)c2)n1           %             1.83
18  O=C1NC(=O)C(N2CCc3ccccc32)=C1c1ccc(Cl)cc1           %            -1.77
19  CCn1c(-c2nonc2N)nc2c(C#CC(C)(C)O)nc(CN3CCCC3)cc21           %             -2.3
20  Nc1ncnc2occ(-c3ccc(NC(=O)Nc4cccc(C(F)(F)F)c4)cc3)c12           %             1.49
21      Nc1nc(-c2ccccn2)c(-c2ccc3ncccc3n2)s1           %            -1.15

---

Listed here: items and their measured inhibition.
- tested_target: Cytoplasmic tyrosine-protein kinase BMX (Homo sapiens) (UniProt P51813);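 also: reported value is the mean percent inhibition of BMX, from the GSK PKIS kinase inhibitor screen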
- Sequence (whole entry): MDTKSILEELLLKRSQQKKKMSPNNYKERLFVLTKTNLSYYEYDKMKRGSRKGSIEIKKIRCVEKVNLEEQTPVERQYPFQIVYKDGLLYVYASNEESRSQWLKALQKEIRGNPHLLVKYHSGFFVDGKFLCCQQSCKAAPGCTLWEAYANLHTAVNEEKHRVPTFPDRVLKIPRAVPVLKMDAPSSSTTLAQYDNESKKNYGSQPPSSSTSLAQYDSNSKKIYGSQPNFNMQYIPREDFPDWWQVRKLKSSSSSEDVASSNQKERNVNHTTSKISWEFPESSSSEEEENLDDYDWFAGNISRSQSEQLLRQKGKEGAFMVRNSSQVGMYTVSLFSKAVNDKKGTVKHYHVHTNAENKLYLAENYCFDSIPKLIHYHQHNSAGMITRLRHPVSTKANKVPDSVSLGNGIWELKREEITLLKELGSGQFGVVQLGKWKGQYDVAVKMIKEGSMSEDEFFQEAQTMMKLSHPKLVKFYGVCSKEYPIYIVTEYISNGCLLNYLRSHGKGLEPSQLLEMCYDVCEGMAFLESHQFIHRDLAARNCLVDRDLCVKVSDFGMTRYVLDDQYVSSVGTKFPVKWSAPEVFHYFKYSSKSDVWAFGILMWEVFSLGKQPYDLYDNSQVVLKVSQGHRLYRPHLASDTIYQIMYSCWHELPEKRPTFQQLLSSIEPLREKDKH
- condition_set: at 1 µM
property_measured: inhibition (%)

> print(dat)
                                    molecule  property.measured  unit.label  numeric.readout
 1  Nc1ncnc2occ(-c3ccc(NC(=O)Nc4cccc(C(F)(F)F)c4)cc3)c12         inhibition           %             71.3
 2  CC1=C(C(=O)Nc2ccc3[nH]ncc3c2)C(c2ccc(F)cc2)NC(=O)N1 (stereo not given)         inhibition           %             1.24
 3  CC(C)=Cc1cccc2c1/C(=N/Nc1ccc(S(N)(=O)=O)cc1)C(=O)N2         inhibition           %             6.64
 4  O=C(Nc1n[nH]c2nc(-c3ccco3)c(Br)cc12)C1CC1         inhibition           %             4.58
 5  NC(=O)c1cccc(Nc2nccc(Nc3cccc4[nH]ncc34)n2)c1         inhibition           %             73.8
 6  CS(=O)(=O)Nc1ccc(N/C=C2\C(=O)Nc3ccccc32)cc1         inhibition           %             0.63
 7   COc1ccc(COc2ccc(Cc3cnc(N)nc3N)cc2OC)cc1         inhibition           %             2.06
 8  CCn1c(-c2nonc2N)nc2c(C#CC(C)(C)O)nc(OC[C@@H](N)c3ccccc3)cc21         inhibition           %             0.02
 9  O=C1NC(=O)C(c2cccc(Cl)c2)=C1Nc1ccc(O)c(Cl)c1         inhibition           %             1.46
10    O=C1NC(=O)C(c2ccccc2Cl)=C1Nc1cccc(O)c1         inhibition           %             4.21
